test system: ZF4 (fibroblasts) cell line; assay: alamarBlue (AB) endpoint of AB/CFDA/NR multiplex, cellular respiration; assay type: cell-based, zebrafish (Danio rerio); details: Danio rerio, Fibroblast; AB - ZF4; read-out: IC50
pIC50: −log10 of the molar value.
Listed here: items and their measured pIC50.
Observation Type: pIC50

compound="CC1(C)C(C=C(Cl)c2ccc(Cl)cc2)C1C(=O)OC(C#N)c1ccc(F)c(Oc2ccccc2)c1 (stereo not drawn) [Flumethrin, flumethrin]" value_measured=3.46
compound="CCC(C)C1OC2(CCC1C)CC1CC(CC=C(C)C(OC3CC(OC)C(OC4CC(OC)C(O)C(C)O4)C(C)O3)C(C)C=CC=C3COC4C(O)C(C)=CC(C(=O)O1)C34O)O2 (stereo not drawn) [Ivermectin, ivermectin]" value_measured=4.99
compound="CCCSc1ccc2nc(NC(=O)OC)[nH]c2c1 [Albendazole, albendazole]" value_measured=5.11

----------
system: ZF4 (fibroblasts) cell line; experiment: alamarBlue (AB) endpoint of AB/CFDA/NR multiplex, cellular respiration; format: cell-based, zebrafish (Danio rerio); details: Danio rerio, Fibroblast; AB - ZF4; read-out: IC50
Below: a set of entries, each annotated with reported IC50.
Observation Type: IC50

molecule=CO[C@H]1C[C@H](O[C@H]2[C@H](C)O[C@@H](O[C@@H]3/C(C)=C/C[C@@H]4C[C@@H](C[C@]5(C=C[C@H](C)[C@@H](C6CCCCC6)O5)O4)OC(=O)[C@@H]4C=C(C)[C@@H](O)[C@H]5OC/C(=C\C=C\[C@@H]3C)[C@]54O)C[C@@H]2OC)O[C@@H](C)[C@@H]1O value_measured="17.1 µM"
molecule=COC(=O)Nc1nc2ccc(Sc3ccccc3)cc2[nH]1 value_measured="3.57 µM"
molecule=Cc1cc(-n2c(=O)[nH]c(=O)n(C)c2=O)ccc1Oc1ccc(SC(F)(F)F)cc1 value_measured="97.5 µM"
molecule="COC(=O)Nc1nc2ccc([S+]([O-])c3ccccc3)cc2[nH]1 (stereo not shown)" value_measured="124 µM"

----------
test system: ZFL (hepatocytes) cell line; assay: cells; type: cell-based, zebrafish (Danio rerio); conditions: Danio rerio, Hepatocyte; ZFL, 48 h exposure, nominal, log10; read-out: logIC50 (log10 IC50;nom) ATP (converted)
# strict inequality: IC50 < 10 µM yields Yes, everything else yields No

molecule="CC1(C)C(C=C(Cl)c2ccc(Cl)cc2)C1C(=O)OC(C#N)c1ccc(F)c(Oc2ccccc2)c1 (stereo not shown)" answer_label=No
molecule="CCC(C)C1OC2(CCC1C)CC1CC(CC=C(C)C(OC3CC(OC)C(OC4CC(OC)C(O)C(C)O4)C(C)O3)C(C)C=CC=C3COC4C(O)C(C)=CC(C(=O)O1)C34O)O2 (stereo not shown)" answer_label=Yes
molecule=Cc1cc(-n2c(=O)[nH]c(=O)n(C)c2=O)ccc1Oc1ccc(SC(F)(F)F)cc1 answer_label=No
molecule="COC(=O)Nc1nc2ccc([S+]([O-])c3ccccc3)cc2[nH]1 (stereo not shown)" answer_label=No
molecule=CCCSc1ccc2nc(NC(=O)OC)[nH]c2c1 answer_label=Yes
molecule=CO[C@H]1C[C@H](O[C@H]2[C@H](C)O[C@@H](O[C@@H]3/C(C)=C/C[C@@H]4C[C@@H](C[C@]5(C=C[C@H](C)[C@@H](C6CCCCC6)O5)O4)OC(=O)[C@@H]4C=C(C)[C@@H](O)[C@H]5OC/C(=C\C=C\[C@@H]3C)[C@]54O)C[C@@H]2OC)O[C@@H](C)[C@@H]1O answer_label=No
